# % knock down after 30′ per entry
# System: malaria mosquito (Anopheles gambiae)
# ASSAY_METHOD_TEXT: Five-minute exposure bioassay, WHO Adult Mosquito Susceptibility Test Kit, treated filter paper
# Format: in vivo
# CONDITION_NOTES: Table 80, filter paper (mg/m^2), 30′
OBSERVATION_TYPE: % knock down after 30′

• CC1(C)[C@H](C(=O)O[C@H](C#N)c2cccc(Oc3ccccc3)c2)[C@@H]1C=C(Br)Br [10 mg DTM] = 9%
• CC1(C)[C@H](C(=O)O[C@H](C#N)c2cccc(Oc3ccccc3)c2)[C@@H]1C=C(Br)Br [5 mg DTM] = 7%
• CC1(C)C(C=C(Br)Br)C1C(=O)OC(C#N)c1cccc(Oc2ccccc2)c1 (centres unmarked) [20 mg DTM] = 66%
• CNC(=O)Oc1cccc2c1OC(C)(C)O2 [20 mg Bendiocarb] = 13%
• CNC(=O)Oc1cccc2c1OC(C)(C)O2 [5 mg Bendiocarb] = 6%
• CNC(=O)Oc1cccc2c1OC(C)(C)O2 [40 mg bendiocarb] = 76%
• CNC(=O)Oc1cccc2c1OC(C)(C)O2 [10 mg Bendiocarb] = 2%
• CC1(C)[C@H](C(=O)O[C@H](C#N)c2cccc(Oc3ccccc3)c2)[C@@H]1C=C(Br)Br [40 mg DTM] = 97%

----------
# Tested on: Musca domestica, susceptible strain WHO(N)
# ASSAY_METHOD_TEXT: Topical insecticide application to houseflies
# Format: in vivo
# CONDITION_NOTES: 30′, 0.5 μl per fly, % a.i. conc. in acetone, Table 95
# Procedure: Male Musca domestica, susceptible strain WHO(N), or other strains were used. The flies were anaesthetized with CO2, and ten individuals were positioned (on their back) on a filter paper which was on the top of a carbon dioxide emitting device. […] Afterwards the insects were transferred into a beaker closed by a gauze lid with a water saturated cotton pad on the top. At regular intervals, mortality was recorded (cumulatively).
# % Mortality after per entry
OBSERVATION_TYPE: % Mortality after (%)

* Cc1ccc(O)c(-n2nc3ccccc3n2)c1 [0.5% Compound B] | 0
* CC1(C)[C@H](C(=O)O[C@H](C#N)c2cccc(Oc3ccccc3)c2)[C@@H]1C=C(Br)Br [0.00064% DTM] | 100
* CC1(C)C(C=C(Br)Br)C1C(=O)OC(C#N)c1cccc(Oc2ccccc2)c1 (stereo not shown) [0.000128% DTM] | 50
* CC1(C)[C@H](C(=O)O[C@H](C#N)c2cccc(Oc3ccccc3)c2)[C@@H]1C=C(Br)Br [0.0000256% DTM] | 20

----------
# Average % Knockdown & Mortality after 30 min per entry
# Tested on: Aedes aegypti mosquito
# ASSAY_METHOD_TEXT: USDA Petri Dish Method, 3 min exposure to dipped fiberglass window screen
# Type: in vivo
# CONDITION_NOTES: 30 min; Table 39, permethrin without adjuvant (Permanone 40), dipped screen, 3 min exposure
OBSERVATION_TYPE: Average % Knockdown & Mortality after 30 min (%)

* CC1(C)C(C=C(Cl)Cl)C1C(=O)OCc1cccc(Oc2ccccc2)c1 (centres unmarked) [Permethrin (1.5%)] | 2
* CC1(C)C(C=C(Cl)Cl)C1C(=O)OCc1cccc(Oc2ccccc2)c1 (centres unmarked) [Permethrin (1.75%)] | 100
* CC1(C)C(C=C(Cl)Cl)C1C(=O)OCc1cccc(Oc2ccccc2)c1 (centres unmarked) [Permethrin (1.0%)] | 5
* CC1(C)C(C=C(Cl)Cl)C1C(=O)OCc1cccc(Oc2ccccc2)c1 (centres unmarked) [Permethrin (2.5%)] | 100
* CC1(C)C(C=C(Cl)Cl)C1C(=O)OCc1cccc(Oc2ccccc2)c1 (centres unmarked) [Permethrin (0.5%)] | 0
* CC1(C)C(C=C(Cl)Cl)C1C(=O)OCc1cccc(Oc2ccccc2)c1 (centres unmarked) [Permethrin (0.1%)] | 0
* CC1(C)C(C=C(Cl)Cl)C1C(=O)OCc1cccc(Oc2ccccc2)c1 (centres unmarked) [Permethrin (5%)] | 100
* CC1(C)C(C=C(Cl)Cl)C1C(=O)OCc1cccc(Oc2ccccc2)c1 (centres unmarked) [Permethrin (1.25%)] | 72

----------
# % knock down after 5′ per entry
# System: malaria mosquito (Anopheles gambiae)
# ASSAY_METHOD_TEXT: Five-minute exposure bioassay, WHO Adult Mosquito Susceptibility Test Kit, treated filter paper
# Type: in vivo
# CONDITION_NOTES: Table 80, technical sample on filter paper (mg/m^2), 5′
OBSERVATION_TYPE: % knock down after 5′

- CNC(=O)Oc1cccc2c1OC(C)(C)O2 [40 mg bendiocarb]: 16%
- CC1(C)[C@H](C(=O)O[C@H](C#N)c2cccc(Oc3ccccc3)c2)[C@@H]1C=C(Br)Br [40 mg DTM]: 22%
- CNC(=O)Oc1cccc2c1OC(C)(C)O2 [5 mg Bendiocarb]: 6%
- CC1(C)[C@H](C(=O)O[C@H](C#N)c2cccc(Oc3ccccc3)c2)[C@@H]1C=C(Br)Br [10 mg DTM]: 0%
- CC1(C)[C@H](C(=O)O[C@H](C#N)c2cccc(Oc3ccccc3)c2)[C@@H]1C=C(Br)Br [5 mg DTM]: 6%
- CNC(=O)Oc1cccc2c1OC(C)(C)O2 [10 mg Bendiocarb]: 2%
- CC1(C)C(C=C(Br)Br)C1C(=O)OC(C#N)c1cccc(Oc2ccccc2)c1 (centres unmarked) [20 mg DTM]: 9%
- CNC(=O)Oc1cccc2c1OC(C)(C)O2 [20 mg Bendiocarb]: 3%

----------
# System: tropical house mosquito Culex quinquefasciatus (adults, 3 days old)
# ASSAY_METHOD_TEXT: Efficacy of formulations on surfaces (glazed/unglazed tiles, plywood), ten 3 day old mosquitoes, 3 min exposure
# Format: in vivo
# CONDITION_NOTES: 30′; in acetone on glazed tiles; Table 84
OBSERVATION_TYPE: % KD and Mortality (%)

- CNC(=O)Oc1cccc2c1OC(C)(C)O2: 17
- CN1C(C)(C)CC(O)CC1(C)C: 0
- COC(=O)CCCCCCCCC(=O)OC [1% Dimethyl sebacate]: 0
- CC1(C)CC(O)CC(C)(C)N1: 0
- O=C(CCCCCCCCC(=O)ON1C(=O)CCC1=O)ON1C(=O)CCC1=O: 0

----------
# Test system: Argentine ant, Linepithema humile
# ASSAY_METHOD_TEXT: Knockdown/mortality of ant workers under continuous exposure on treated glazed tile
# CONDITION_NOTES: 2 hr; Table 25, imidacloprid/dibutyl sebacate (DBS) in acetone, glazed tile
OBSERVATION_TYPE: Average % Knockdown & Mortality after 2 hr (%)

- CCCCOC(=O)CCCCCCCCC(=O)OCCCC [DBS (5%)]: 100
- O=[N+]([O-])NC1=NCCN1Cc1ccc(Cl)nc1: 0
- CCCCOC(=O)CCCCCCCCC(=O)OCCCC [DBS (1%)]: 0
- CCCCOC(=O)CCCCCCCCC(=O)OCCCC [DBS (0.1%)]: 0

----------
# Tested on: Musca domestica, susceptible strain WHO(N)
# ASSAY_METHOD_TEXT: Topical insecticide application to houseflies
# Format: in vivo
# CONDITION_NOTES: 2 h, 0.5 μl per fly, % a.i. conc. in acetone, Table 95
# % Mortality after per entry
OBSERVATION_TYPE: % Mortality after (%)

* Cc1ccc(O)c(-n2nc3ccccc3n2)c1 | 0
* CC1(C)C(C=C(Br)Br)C1C(=O)OC(C#N)c1cccc(Oc2ccccc2)c1 (stereo not shown) | 70
* CC1(C)[C@H](C(=O)O[C@H](C#N)c2cccc(Oc3ccccc3)c2)[C@@H]1C=C(Br)Br [0.0000256% DTM] | 20
* CC1(C)[C@H](C(=O)O[C@H](C#N)c2cccc(Oc3ccccc3)c2)[C@@H]1C=C(Br)Br [0.00064% DTM] | 100

----------
# System: Aedes aegypti mosquito
# ASSAY_METHOD_TEXT: USDA Petri Dish Method, 3 min exposure to dipped fiberglass window screen
# Assay type: in vivo
# CONDITION_NOTES: 60 min; Table 39, permethrin without adjuvant (Permanone 40), dipped screen, 3 min exposure
# Average % Knockdown & Mortality after 60 min per entry
OBSERVATION_TYPE: Average % Knockdown & Mortality after 60 min (%)

* CC1(C)C(C=C(Cl)Cl)C1C(=O)OCc1cccc(Oc2ccccc2)c1 (centres unmarked) [Permethrin (2.5%)] | 100
* CC1(C)C(C=C(Cl)Cl)C1C(=O)OCc1cccc(Oc2ccccc2)c1 (centres unmarked) [Permethrin (0.5%)] | 0
* CC1(C)C(C=C(Cl)Cl)C1C(=O)OCc1cccc(Oc2ccccc2)c1 (centres unmarked) [Permethrin (5%)] | 100
* CC1(C)C(C=C(Cl)Cl)C1C(=O)OCc1cccc(Oc2ccccc2)c1 (centres unmarked) [Permethrin (1.0%)] | 18
* CC1(C)C(C=C(Cl)Cl)C1C(=O)OCc1cccc(Oc2ccccc2)c1 (centres unmarked) [Permethrin (1.75%)] | 100
* CC1(C)C(C=C(Cl)Cl)C1C(=O)OCc1cccc(Oc2ccccc2)c1 (centres unmarked) [Permethrin (0.1%)] | 0
* CC1(C)C(C=C(Cl)Cl)C1C(=O)OCc1cccc(Oc2ccccc2)c1 (centres unmarked) [Permethrin (1.25%)] | 79
* CC1(C)C(C=C(Cl)Cl)C1C(=O)OCc1cccc(Oc2ccccc2)c1 (centres unmarked) [Permethrin (1.5%)] | 3
